- procedure.text: viability profiling in RPMI8226 myeloma cells – cell-based, resazurin fluorescence, basal, 24 h, PK04 Diversity Set, profiling panel (AID 1180);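 note: RPMI8826 multiple myeloma cell line at 5000 cells per well; test concentration not given here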
- condition.set: higher = more signal
Provide the recorded z-score for the entries that follow.

Please review the following examples before continuing.
molecule	z-score
CCCC[C@@H]1C[C@H]1[C@@H](NC(=O)c1ccco1)c1ccccc1	0.0092
C=C[C@@H](C)[C@@H](OC(=O)Nc1ccc(OC)cc1)c1ccc(O)c2ccccc12	-4.37
CCCCN1CC=CC23O[C@@H]4C=CCCOC(=O)C4[C@H]2C(=O)N(CCCO)[C@@H]3C1=O (some centres undefined)	-0.937
C=C[C@H](C)[C@H](OC(=O)Nc1ccc(OC)cc1)c1ccc(O)c2ccccc12	-2.21

Could you tell me z-score for each of these molecules? They are listed below.
1. C=CCNC(=O)[C@@H]1[C@H]2C(=O)O[C@H](c3ccccc3)[C@H](c3ccccc3)N2[C@H](c2ccccc2OCCO)[C@@]12C(=O)N(C(=O)OCCOC)c1ccc(C#CCC(C(=O)OC)C(=O)OC)cc12
2. COCCOC(=O)N1C(=O)[C@@]2(c3cc(C#CCC(C(=O)OC)C(=O)OC)ccc31)[C@H](c1ccccc1OCCO)N1[C@H](c3ccccc3)[C@H](c3ccccc3)OC(=O)[C@H]1[C@@H]2C(=O)Nc1nc2ccccc2s1

1: -0.11; 2: 0.599

For every record below, what is its z-score?
1. C/C=C/[C@H](CCn1cc([C@H](O)c2ccccc2)nn1)[Si](C)(C)c1ccc(OC)cc1
2. CN(C)CCCC[C@@H]1NC(=O)[C@@H]2C[C@H](C(=O)NCc3ccc(F)cc3)[C@H](c3cccc(OCCO)c3)N2C1=O
3. CC(C)(C)OC(=O)CC[C@@]1(C(=O)NCC(O)CO)N=C(c2ccc(OCCCO)cc2)O[C@@H]1c1ccccc1 (some centres undefined)
4. C=C(C(=O)CC[C@@H](OC(=O)c1cccnc1)c1ccc(OCCO)cc1)C(C)C
5. CN(C)CCCC[C@@H]1NC(=O)[C@@H]2C[C@H](C(=O)NCCCCCCN)[C@H](c3ccc(O)cc3)N2C1=O
6. COCCOC(=O)N1C(=O)[C@@]2(c3cc(C#CCCO)ccc31)[C@H](C(=O)NC[C@H](O)c1ccccc1)[C@H]1C(=O)O[C@H](c3ccccc3)[C@H](c3ccccc3)N1[C@@H]2c1ccc(OCCO)cc1
7. [N-]=[N+]=NCc1ccccc1C[C@@]1(C(=O)NCc2ccccc2)N=C(c2ccc(OCCCO)cc2)O[C@@H]1c1ccccc1CN=[N+]=[N-]

1. -0.187
2. 0.293
3. -0.397
4. -1.56
5. 0.109
6. 1.43
7. -0.538

Hi team, please reply with z-score for each item in this list.
1. COC(=O)[C@@]1(Cc2ccccc2)[C@H]2c3cc(C(=O)N(C)C)n(Cc4ccccc4)c3C[C@H]2CN1C(=O)c1ccccc1
2. C[C@H]1C2[C@H](Cc3ccccc3)NC(=O)[C@]23C(=O)N[C@H](Cc2ccccc2)C(=O)N[C@H](Cc2ccccc2)C(=O)NC/C=C/CCC/C=C/C3[C@@H]2O[C@]12C (some centres undefined)
3. CC(C)[C@H]1COC(=O)N1C(=O)[C@H]1[C@@H](c2ccccc2)N(c2ccccc2)O[C@@H]1C
4. COCC1=C([C@H](O)CCc2ccccc2)[C@H](CO)[C@@H]2C(=O)N(Cc3ccccc3)C(=O)[C@@H]2C1
5. COc1ccc([Si](C)(C)[C@@H]2[C@@H](CCO)O[C@]3(C(=O)N(Cc4ccc(N5C(=O)c6cccc7cccc5c67)cc4)c4ccccc43)[C@H]2C)cc1
6. O=C(N1CCCCC1)[C@]1(CCS(=O)(=O)c2ccccc2)N=C(c2ccc(OCCCO)cc2)O[C@@H]1c1ccccc1

1. -1.05
2. -0.403
3. 1.41
4. 0.449
5. -4.48
6. -1.61

For each of the items listed, what is its z-score?
1. COCCOC(=O)N1C(=O)[C@@]2(c3cc(C#Cc4ccc(OC)cc4)ccc31)[C@H](c1ccc(OCCO)cc1)N1[C@H](c3ccccc3)[C@H](c3ccccc3)OC(=O)[C@H]1[C@@H]2C(=O)N1CCc2cc(OC)c(OC)cc2C1
2. O=C1NC(=O)C2C1C=CC(C(O)c1cccs1)N2Nc1ccccn1 (centres undefined)

1: 0.928; 2: 0.398

Record z-score for all entries; do not skip any.
1. CCCCN1CC=CC23O[C@@H]4/C=C\CCCOC(=O)C4[C@H]2C(=O)N(C(C)CO)[C@@H]3C1=O (some centres undefined)
2. COc1ccc(C(O)C2C=CC3C(=O)N(c4ccccc4)C(=O)C3N2Nc2ccccc2)c2ccccc12 (centres undefined)

1. 0.442
2. -1.95

# per-item lookup of z-score; items listed below
1. C[N+](C)(C)CCCCNC(=O)[C@H]1C[C@H]2C(=O)N3CCC[C@H]3C(=O)N2[C@H]1c1ccc(O)cc1
2. C=C[C@H](C)[C@H](O)c1ccc(OCCO)cc1

[-0.977, -1.9]

Quick request: z-score for each listed item, please.
1. CCOC(=O)C1=CC[C@@H](c2ccccc2)N(S(=O)(=O)c2ccc(C)cc2)[C@H]1c1ccc(C#N)cc1
2. CC(C)OC(=O)C1=CCC(c2cccc(Cl)c2)O1 (centres undefined)
3. NC(=O)NCC#Cc1ccc2c(c1)[C@]1(C(=O)N2)[C@H](c2ccccc2OCCO)N2[C@H](c3ccccc3)[C@H](c3ccccc3)OC(=O)[C@H]2[C@@H]1C(=O)N1CCCCCCC1

[-1.4, -0.501, 0.966]

Please give the measured z-score for this molecule: `CC(=O)NCCCC[C@@H]1NC(=O)[C@@H]2C[C@H](C(=O)NCc3ccc(F)cc3)[C@H](c3ccc(O)cc3)N2C1=O`
0.473

The origin of these recorded values is PubChem BioAssay.
